Below, each entry is listed alongside its reported IC50.
Test system: KM12 (TPM3-TRKA)
Assay: Cell proliferation assay (CellTiter-Glo)
Format: cell-based
Settings: Homo sapiens, anti-cell proliferation, 72 hours

- compoundStructureString: "C[C@@H]1COc2ncc(F)cc2CN2c3nc4c(cnn4cc3OC[C@H]2C(N)=O)C(=O)N1"
  IC50: "51.2 nM"
- compoundStructureString: "C[C@@H]1COc2cn3ncc4c3nc2N1Cc1cc(F)cnc1OCCCNC4=O"
  IC50: "< 0.2 nM"
- compoundStructureString: "C[C@@H]1COc2ncc(F)cc2[C@@H](C)N2c3nc4c(cnn4cc3OC[C@H]2C)C(=O)N1"
  IC50: "< 0.2 nM"

Looking up "C[C@H]1CNC(=O)c2cnn3cc4c(nc23)N(CCO4)Cc2c(ccc(F)c2Cl)O1" , I found its IC50 recorded as 0.2 nM

Record "C[C@@H]1COc2cn3ncc4c3nc2N(Cc2cc(F)ccc2O[C@@H](C)CNC4=O)C1" . Reported IC50: 5.1 nM

Documented IC50 of "C[C@@H]1COc2cn3ncc4c3nc2N1Cc1cc(F)cnc1OCC(O)(O)CNC4=O" : < 0.2 nM

IC50 reported for this compound "C[C@@H]1COc2cn3ncc4c3nc2N1Cc1cc(F)cnc1OC[C@H](CO)NC4=O" : < 0.2 nM

Reported IC50 ( "C[C@@H]1COc2cn3ncc4c3nc2N1Cc1cc(F)cnc1OC[C@H](F)CNC4=O" ) = < 0.2 nM

Field IC50 (entry "CC[C@@H]1COc2cn3ncc4c3nc2N1Cc1cc(F)cnc1OCC(C)(C)CNC4=O" ) reads < 0.2 nM

In plain terms, "C[C@@H]1COc2cn3ncc4c3nc2N1Cc1cc(F)cnc1O[C@H](CO)CNC4=O" has a documented IC50 of 13.3 nM

* * *

# IC50 values compiled below
Test system: KM12 (TPM3-TRKA)
Assay: Cell proliferation assay (CellTiter-Glo)
Type: cell-based
Conditions: Homo sapiens, anti-cell proliferation, 72 hours

- compound: "C[C@@H]1CCOc2cn3ncc4c3nc2N1Cc1cc(F)ccc1O[C@@H](C)CNC4=O [Compound 19]"
  experimentalReadout: "IC50"
  val: "< 0.2 nM"
- compound: "C[C@@H]1COc2ncc(F)cc2[C@H](C)N2c3nc4c(cnn4cc3OC[C@H]2C)C(=O)N1 [Compound 84]"
  experimentalReadout: "IC50"
  val: "< 0.2 nM"
- compound: "CC[C@@H]1COc2cn3ncc4c3nc2N1Cc1cc(F)cnc1OCC(C)(C)NC4=O [Compound 65]"
  experimentalReadout: "IC50"
  val: "< 0.2 nM"
- compound: "CC[C@@H]1COc2cn3ncc4c3nc2N1Cc1cc(F)ccc1OC[C@@H](C)NC4=O [Compound 13]"
  experimentalReadout: "IC50"
  val: "0.2 nM"
- compound: "C[C@@H]1COc2cn3ncc4c3nc2N1Cc1cc(F)cnc1OCC(C)(C)NC4=O [Compound 40]"
  experimentalReadout: "IC50"
  val: "< 0.2 nM"

Looking up C[C@@H]1COc2cn3ncc4c3nc2N(Cc2cc(F)cnc2OCCC(C)(C)NC4=O)C1 [Compound 99] , I found its IC50 recorded as 63.7 nM

Notebook: C[C@@H]1CCOc2cn3ncc4c3nc2N1Cc1cc(F)cnc1O[C@@H](C)CNC4=O [Compound 21] , IC50 read as 0.6 nM

Hey, just so you know, these numbers are from patent US20210087206A1.
